Target: human recombinant ETB receptors (Homo sapiens)
Construct: expressed in transfected cells; host or cells: CHO cells (microsomal membranes)
Sequence (P24530 27-442): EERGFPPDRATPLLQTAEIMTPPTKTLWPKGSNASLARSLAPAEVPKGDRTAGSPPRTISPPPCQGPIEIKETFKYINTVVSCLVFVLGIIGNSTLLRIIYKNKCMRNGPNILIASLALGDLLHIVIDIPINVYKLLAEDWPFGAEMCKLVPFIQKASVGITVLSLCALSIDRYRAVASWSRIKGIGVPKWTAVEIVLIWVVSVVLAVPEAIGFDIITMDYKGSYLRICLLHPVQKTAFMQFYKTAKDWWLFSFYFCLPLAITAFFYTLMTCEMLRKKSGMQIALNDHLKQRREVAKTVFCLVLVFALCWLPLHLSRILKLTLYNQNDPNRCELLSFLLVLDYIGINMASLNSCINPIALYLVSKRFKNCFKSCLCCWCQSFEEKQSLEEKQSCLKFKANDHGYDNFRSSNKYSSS
Test: Inhibition of endothelin binding to membranes from CHO cells carrying human ET receptors (ETB)
pIC50: −log10 of the molar value.
Classification scheme (pIC50): low interval = under 6, middle interval = from 6 up to 7, high interval = 7 and over

Which bin, given its pIC50, does COc1ccccc1Oc1c(NS(=O)(=O)c2ccc(C(C)C)cn2)nc(N2CCOCC2)nc1OCCNS(=O)(=O)c1ccc(C)cc1 [Example 60] occupy? high interval

Consider next the compound CCS(=O)(=O)NCCOc1nc(-c2ncccn2)nc(NS(=O)(=O)c2ccc(C(C)C)cn2)c1Oc1ccccc1OC [Example 70] in the same way. low interval

What would you report for COc1ccccc1Oc1c(NS(=O)(=O)c2ccc(C(C)(C)C)cc2)nc(-c2ccncc2)nc1OCCNS(=O)(=O)c1cccs1 [Example 51] ? middle interval

Now consider CCCCS(=O)(=O)NCCOc1nc(C(F)(F)F)nc(NS(=O)(=O)c2ccc(C(C)C)cn2)c1Oc1ccccc1OC [Example 49] . middle interval

What about this compound? COc1ccccc1Oc1c(NS(=O)(=O)c2ccc(C(C)C)cn2)nc(C(F)(F)F)nc1OCCNS(=O)(=O)c1cccs1 [Example 54] middle interval

How about CCS(=O)(=O)NCCOc1nc(N2CCN(C)CC2)nc(NS(=O)(=O)c2ccc(C(C)(C)C)cc2)c1Oc1ccccc1OC [Example 82] ? low interval

What do you have for CCS(=O)(=O)NCCOc1nc(C2CC2)nc(NS(=O)(=O)c2ccc(C(C)C)cn2)c1Oc1ccccc1OC [Example 43] ? middle interval

Next up: COc1ccccc1Oc1c(NS(=O)(=O)c2ccc(C(C)C)cn2)nc(N2CCOCC2)nc1OCCNS(C)(=O)=O [Example 45] middle interval

Try CCCS(=O)(=O)NCCOc1ncnc(NS(=O)(=O)c2ccc(C(C)(C)C)cc2)c1Oc1ccccc1OC [Example 30] next. middle interval

Also, COc1ccccc1Oc1c(NS(=O)(=O)c2ccc(C(C)C)cn2)nc(C2CC2)nc1OCCCNS(=O)(=O)c1cccs1 [Example 93] please. high interval
